assay: qHTS of pediatric cancer cell lines to identify multiple opportunities for drug repurposing: Primary screen for Saos-2 cells (AID 1347097); details: Saos-2 viability, CellTiter-Glo ATP luminescence, 48 h; series mostly up to 46 µM; also: nearly all actives have a fitted effect of over 40% in size
Results filed as inconclusive are left out. The source made the active and inactive calls. Calls follow the shape of the dose curve; as a rule, active = well fitted cell-killing curve with a large enough effect; inconclusive = small, poorly fitted or top-dose-only effect; inactive = no such curve, though single readings can be large or run the other way.
Give one outcome, nothing more. List: true for active, false for inactive

{"columns": ["compound", "label"],
 "data": [
  ["CC(=O)NCC(=O)N1[C@H]2CC[C@H]1c1cc(Nc3ncc(C(F)(F)F)c(NC4CCC4)n3)ccc12", "true"],
  ["O=C(C=Cc1ccc(CN(CCO)CCc2c[nH]c3ccccc23)cc1)NO", "true"],
  ["CCOC(=O)N1CCN([N+]([O-])=NOc2ccc([N+](=O)[O-])cc2[N+](=O)[O-])CC1", "true"]
]}

Short answer needed: outcome of this test for "Nc1ccc(C(=O)Nc2cccc(-c3nc(N4CCOCC4)c4oc5ncccc5c4n3)c2)cn1" ?
true

How did this test come out for CN(N=O)C(=O)N[C@H]1C(O)OC(CO)[C@@H](O)[C@H]1O (stereo not given in full) ?
false

====

tested on: WaGa; assay: qHTS assay to identify novel small-molecules to repurpose for Merkel cell carcinoma treatment (AID 1296009); settings: MCC and control cell lines, CellTiter-Glo viability, 72 h; series mostly up to 46 µM; also: nearly all actives have a fitted effect of over 60% in size
Records with an inconclusive call do not appear. Active and inactive are the calls of the source. The call rests on the fitted dose curve; in most records, active means well fitted inhibition curve with a large enough effect; inconclusive means small, poorly fitted or top-dose-only effect; inactive means flat fitted curve, though single readings scatter.
Parameter call: string, one of true (1) = active, false (0) = inactive

Reference set, count: 3
{"columns": ["molecular string", "label"],
 "data": [
  ["N#Cc1cc(NC(=O)Nc2nnc(-c3ccncc3)s2)ccc1-c1cn[nH]c1", "false (0)"],
  ["CN(C)CC[C@H](c1ccc(Cl)cc1)c1ccccn1", "false (0)"],
  ["C=C(C)[C@@H]1CC[C@]2(C(=O)O)CC[C@]3(C)[C@H](CC[C@@H]4[C@@]5(C)CC[C@H](O)C(C)(C)[C@@H]5CC[C@]43C)[C@@H]12", "false (0)"]
]}

Hey, what did the test say about "CN(CC(=O)N(Cc1ccc(C2CCCCC2)cc1)c1ccc(C(=O)O)c(O)c1)S(=O)(=O)c1c(F)c(F)c(F)c(F)c1F" ?
true (1)

Called result for "COc1ccc(C(C)=O)c(O)c1"
false (0)

Hi, sorry to bother you, what did the test record for "c1cc(CN2CCCNCCNCCCNCC2)ccc1CN1CCCNCCNCCCNCC1" ?
false (0)

====

experiment: Quantitative High-Throughput drug screen in 47 multiple myeloma cell lines against the NCATS MIPE library collection: ARD_JJKsccE7 cell viability assay (AID 1918929;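 as to viability: 100% = DMSO-only wells and 0% = media-only wells without cells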); settings: ARD myeloma cell line viability, CellTiter-Glo, 48 h; series mostly up to 45.8 µM
Records with an inconclusive call do not appear. Calls of active or inactive are those of the source. The call rests on the fitted dose curve; in most records, active means well fitted cell-killing curve with a large enough effect; inconclusive means small, poorly fitted or top-dose-only effect, or effect the other way; inactive means no such curve, though single readings can be large or run the other way.
Valid outcomes are listed here; reply with one: t = active, f = inactive

Would you please look over these solved cases?
{"columns": ["molecular string", "label"],
 "data": [
  ["CC[C@]12C=CCN3CC[C@@]4(c5cc([C@@]6(C(=O)OC)C[C@H]7C[C@@H](C(C)(F)F)CN(Cc8c6[nH]c6ccccc86)C7)c(OC)cc5N(C)[C@H]4[C@@](O)(C(=O)OC)[C@H]1OC(C)=O)[C@@H]32", "t"],
  ["COc1cccc2c1C(=O)c1c(O)c3c(c(O)c1C2=O)C[C@@](O)(C(C)=O)C[C@H]3O[C@H]1C[C@H](N)[C@H](O)[C@H](C)O1", "t"],
  ["COc1cccc2c1C(=O)c1c(O)c3c(c(O)c1C2=O)C[C@@](O)(C(=O)CO)C[C@H]3O[C@H]1C[C@H](N)[C@H](O)[C@H](C)O1", "t"],
  ["O=C1NC(=O)[C@@H](c2cn3c4c(cccc24)CCC3)[C@H]1c1c[nH]c2ccccc12", "t"],
  ["CN(C)c1ccc2cc(C(=O)N[C@@H](CCCN=C(N)CCl)C(=O)NCc3ccccc3)ccc2c1", "t"]
]}

Could you now look at the following compound, please?
Tell me the recorded outcome of this test for "C[C@H](CCC(=O)O)[C@H]1CC[C@H]2[C@@H]3[C@H](O)C[C@@H]4C[C@H](O)CC[C@]4(C)[C@@H]3CC[C@]12C" .
f

====

test system: Zika virus NS2B-NS3 protease (linked construct); assay: 384 well plate NINDS Rhodamine confirmatory qHTS for Zika virus inhibitors (AID 1347164); conditions: rhodamine-110 peptide substrate fluorescence; series mostly up to 100 µM;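 also: fluorescence from protease cleavage of Ac-LKRR-rhodamine 110 substrate; nearly all actives have a fitted effect of over 65% in size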
Records with an inconclusive call do not appear. Calls of active or inactive are those of the source. The call rests on the fitted dose curve; in most records, active means well fitted inhibition curve with a large enough effect; inconclusive means small, poorly fitted or top-dose-only effect; inactive means no such curve, though single readings can be large or run the other way.
Respond with a class label; see active, inactive

Worked cases, answers included:
{"columns": ["molecular string", "experimental system", "label"],
 "data": [
  ["CC(C)c1cc(C(C)C)c(CC(=O)NS(=O)(=O)Oc2c(C(C)C)cccc2C(C)C)c(C(C)C)c1", "Zika virus NS2B-NS3 protease (linked construct)", "inactive"],
  ["COc1ccc(S(=O)(=O)Nc2cc(-c3c(O)ccc4ccccc34)c(O)c3ccccc23)cc1", "Zika virus NS2B-NS3 protease (linked construct)", "active"],
  ["Cc1ccc(-n2[nH]c(C)c(N=Nc3cccc(-c4cccc(C(=O)O)c4)c3O)c2=O)cc1C", "Zika virus NS2B-NS3 protease (linked construct)", "active"],
  ["CCCCCCCCc1ccc(CCC(N)(CO)CO)cc1", "Zika virus NS2B-NS3 protease (linked construct)", "inactive"]
]}

# fetch the recorded call for "O=c1c(O)c(-c2ccc(O)c(O)c2)oc2cc(O)ccc12" here
active

====

assay: Quantitative High-Throughput drug screen in 47 multiple myeloma cell lines against the NCATS MIPE library collection: KMS34_JCRB cell viability assay (AID 1918985); settings: KMS34 myeloma viability, CellTiter-Glo ATP luminescence, 48 h; series mostly up to 45.8 µM; also: nearly all actives have a fitted effect of over 40% in size
Records with an inconclusive call do not appear. Activity calls are given as the source filed them. Calls come from the whole dose curve; as a rule, active = well fitted cell-killing curve with a large enough effect; inconclusive = small, poorly fitted or top-dose-only effect, or effect the other way; inactive = no such curve, though single readings can be large or run the other way.
Tick one outcome: active, inactive

Some solved cases for reference:
{"columns": ["compound", "label"],
 "data": [
  ["O=C(c1ccc(F)cc1)N1CCC[C@H](c2nc(-c3ccc(F)cc3)no2)C1", "inactive"],
  ["CCc1ccc(C(=O)Nc2cc(CN3CCN(C)CC3)cc(C(F)(F)F)c2)cc1C#Cc1cnc2ccnn2c1", "active"],
  ["CCCCCCCCCCCCc1ccc(S(=O)(=O)Nc2nncs2)cc1", "inactive"],
  ["CCOC(=O)[C@@H](N)Cc1ccc(-c2cc(O[C@H](c3ccc(Cl)cc3-n3ccc(C)n3)C(F)(F)F)nc(N)n2)cc1", "active"],
  ["COc1ccc(CCC(=O)c2c(O)cc(O[C@@H]3O[C@H](CO)[C@@H](O)[C@H](O)[C@@H]3O[C@@H]3O[C@@H](C)[C@H](O)[C@@H](O)[C@@H]3O)cc2O)cc1O", "inactive"]
]}

Recorded test call requested for "NC(=O)N1CCC(CC(=O)N2CCC([C@H]3c4ncc(Br)cc4CCc4cc(Cl)cc(Br)c43)CC2)CC1"
active

Please indicate how the test categorized "CC(C)n1cnc2c(NCCc3ccc(O)cc3)nc(-c3csc4ccccc34)nc21" .
active

# outcome recorded in this test, key = CCC(C(=O)O)C1CCC(C)C(C(C)C(O)C(C)C(=O)C(CC)C2OC3(C=CC(O)[C@@]4(CC[C@](C)(C5CC[C@@](O)(CC)C(C)O5)O4)O3)C(C)CC2C)O1 (stereo partly drawn)
active

What was the test verdict on "CS(=O)(=O)N1CCc2c(-c3cnc(N)nc3)nc(N3CCOCC3)nc21" ?
active

What was the test verdict on "CN(C)CCN1C(=O)c2cccc3cc(N)cc(c23)C1=O" ?
active

Recorded call for "C[C@H](NCc1ccc2c(c1)nc(NC(=O)c1ccc(-c3cn[nH]c3)s1)n2CCc1ccccc1)C(C)(C)C" ?
active

For "CC(C)N(CC[C@H](c1ccccc1)c1cc(CO)ccc1O)C(C)C" , what call appears in the results of this test?
inactive

====

target: Furin (Homo sapiens) (UniProt P09958); assay: Furin counterscreen qHTS for Zika virus inhibitors (AID 1347149); details: furin enzymatic counterscreen, fluorogenic substrate; series mostly up to 57.5 µM; also: nearly all actives have a fitted effect of over 70% in size
Sequence (P09958 whole entry, looked up): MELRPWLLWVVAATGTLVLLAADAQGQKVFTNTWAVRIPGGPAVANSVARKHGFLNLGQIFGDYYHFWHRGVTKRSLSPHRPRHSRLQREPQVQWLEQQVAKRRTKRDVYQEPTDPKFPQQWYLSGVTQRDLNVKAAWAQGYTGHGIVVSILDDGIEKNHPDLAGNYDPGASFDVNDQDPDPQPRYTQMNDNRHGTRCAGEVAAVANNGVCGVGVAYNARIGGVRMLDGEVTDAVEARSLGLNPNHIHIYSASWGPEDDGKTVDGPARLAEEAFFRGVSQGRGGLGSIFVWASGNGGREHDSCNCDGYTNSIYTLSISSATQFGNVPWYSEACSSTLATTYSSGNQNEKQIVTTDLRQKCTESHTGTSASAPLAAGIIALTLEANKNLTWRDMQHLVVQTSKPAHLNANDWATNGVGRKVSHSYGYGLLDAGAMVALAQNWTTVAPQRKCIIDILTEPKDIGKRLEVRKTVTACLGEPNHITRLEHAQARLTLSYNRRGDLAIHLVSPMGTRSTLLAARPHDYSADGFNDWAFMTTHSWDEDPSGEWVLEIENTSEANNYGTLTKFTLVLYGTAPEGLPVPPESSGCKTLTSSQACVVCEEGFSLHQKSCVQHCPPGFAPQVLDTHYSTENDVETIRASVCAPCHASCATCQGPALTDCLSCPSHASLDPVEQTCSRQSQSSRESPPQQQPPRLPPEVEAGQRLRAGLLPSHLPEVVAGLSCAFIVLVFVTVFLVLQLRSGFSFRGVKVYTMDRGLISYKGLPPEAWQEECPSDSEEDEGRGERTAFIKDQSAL
Inconclusive results are not listed. The source made the active and inactive calls. Calls come from the whole dose curve; as a rule, active = well fitted inhibition curve with a large enough effect; inconclusive = small, poorly fitted or top-dose-only effect; inactive = no such curve, though single readings can be large or run the other way.
Permitted responses: active, inactive

{"columns": ["molecular string", "experimental system", "label"],
 "data": [
  ["c1cc(N[C@@H]2CCNC2)nc(-c2cnc3ccc(-c4cn[nH]c4)cn23)c1", "Furin (Homo sapiens) (UniProt P09958)", "active"],
  ["C[C@H]1COc2c(N3CCN(C)CC3)c(F)cc3c(=O)c(C(=O)O)cn1c23", "Furin (Homo sapiens) (UniProt P09958)", "active"]
]}

For "COc1ccc(S(=O)(=O)Nc2cc(-c3c(O)ccc4ccccc34)c(O)c3ccccc23)cc1" , which call appears in the assay record?
inactive

Assay result, entry "CN[C@@H]1C[C@H]2O[C@@](C)([C@H]1OC)n1c3ccccc3c3c4c(c5c6ccccc6n2c5c31)C(=O)N[C@H]4O" — outcome?
inactive
